# target.entity: Ribosomal protein S6 kinase (Homo sapiens) (UniProt P51812+Q9UBS0+O75676+Q15349+O75582+P23443+Q9UK32+Q15418)
# measurement.protocol: Inhibition of RPS6 kinase in human HeLa cells assessed as p-RPS6 Ser235/236 phosphorylation level at 5 uM incubated for 6 hrs by SDS-PAGE based chemiluminescence assay
# Type: cell-based
# Set-up: scale not given: the % may be the effect or the level left
The label fulfilled is reserved for Activity strictly under 2%; not fulfilled covers values equal to or above it.

Ask: Problem: For the compound Cc1cc(C)c(/C=C2\C(=O)Nc3c2cccc3-c2ccncc2)[nH]1 , is Activity under 2%?
Reply: not fulfilled

Ask: Now consider CCN(CC)CCNC(=O)c1c(C)[nH]c(/C=C2\C(=O)Nc3ccc(-c4n[nH]c5ccccc45)cc32)c1C and answer again.
Reply: not fulfilled

Ask: Further, for COc1ncc(-c2cccc3c2NC(=O)/C3=C\c2[nH]c(C)cc2C)cn1 ?
Reply: not fulfilled

Ask: Another: CCN(CC)CCNC(=O)c1c(C)[nH]c(/C=C2\C(=O)Nc3ccc(-c4ccc(-c5ccccc5)cn4)cc32)c1C
Reply: not fulfilled

Ask: Consider next the compound Cc1[nH]c(/C=C2\C(=O)Nc3cc(-c4csc(-c5ccccc5)n4)ccc32)c(C)c1C(=O)N1CCOCC1 in the same way.
Reply: not fulfilled

Ask: Follow-up entry: Cc1cc(C)c(/C=C2\C(=O)Nc3ccc(-c4csc(C5CCNCC5)n4)cc32)[nH]1
Reply: not fulfilled

Ask: Check Cc1cc(C)c(/C=C2\C(=O)Nc3ccc(-c4ccc5cn[nH]c(=O)c5c4)cc32)[nH]1 too.
Reply: fulfilled

Ask: And for COC(=O)c1c(C)[nH]c(/C=C2\C(=O)Nc3ccc(-c4csc(C5CCNCC5)n4)cc32)c1C ?
Reply: not fulfilled

Ask: Now consider CCN(CC)CCNC(=O)c1c(C)[nH]c(/C=C2\C(=O)Nc3ccc(-c4csc(-c5ccc(O)cc5)n4)cc32)c1C and answer again.
Reply: not fulfilled

Ask: Next compound: CCN(CC)CCNC(=O)c1c(C)[nH]c(/C=C2\C(=O)Nc3ccc(-c4cccnc4)cc32)c1C
Reply: fulfilled

====

# target.entity: AMP-activated protein kinase, AMPK (Homo sapiens) (UniProt P54646+O43741+P54619+Q9UGJ0+Q9Y478+Q13131+Q9UGI9)
# measurement.protocol: Inhibition of AMPK in human HeLa cells assessed as kinase phosphorylation level at 5 uM incubated for 6 hrs by SDS-PAGE based chemiluminescence assay
# Type: cell-based
# Design: scale not given: the % may be the effect or the level left
Would you mind telling me the reported Activity of each entry?

Ask: Recorded Activity of Cc1[nH]c(/C=C2\C(=O)Nc3cccc(-c4ccc(-c5ccccc5)cc4)c32)c(C)c1C(=O)N1CCN(C)CC1 , please.
Reply: 105%

Ask: Can you handle Cc1cc(C)c(/C=C2\C(=O)Nc3ccc(-c4csc(C5CCNCC5)n4)cc32)[nH]1 next?
Reply: 47%

Ask: Also CCN(CC)CCNC(=O)c1c(C)[nH]c(/C=C2\C(=O)Nc3c2cccc3-c2cncc(C)c2)c1C ?
Reply: 50%

Ask: # iterate: COc1ncccc1-c1cccc2c1/C(=C/c1[nH]c(C)cc1C)C(=O)N2
Reply: 105%

Ask: And CCN(CC)CCNC(=O)c1c(C)[nH]c(/C=C2\C(=O)Nc3ccc(-c4csc(-c5ccccc5)n4)nc32)c1C ?
Reply: 35%

Ask: Same lookup for CCN(CC)CCNC(=O)c1c(C)[nH]c(/C=C2\C(=O)Nc3ccc(-c4csc(-c5ccc(O)cc5)n4)cc32)c1C , please.
Reply: 47%

Ask: Further, for CCN(CC)CCNC(=O)c1c(C)[nH]c(/C=C2\C(=O)Nc3ccc(-c4ccc(-c5ccccc5)cn4)cc32)c1C ?
Reply: 118%

Ask: What do you get for Cc1[nH]c(/C=C2\C(=O)Nc3cc(-c4csc(-c5ccccc5)n4)ccc32)c(C)c1C(=O)N1CCOCC1 ?
Reply: 118%

Ask: # iterate: Cc1cc(C)c(/C=C2\C(=O)Nc3cccc(-c4cncnc4)c32)[nH]1
Reply: 198%

Ask: And then Cc1cc(C)c(/C=C2\C(=O)Nc3ccc(-c4csc(C5CCCNC5)n4)cc32)[nH]1 (centres undefined) , what is it?
Reply: 69%

Ask: Same lookup for CCN(CC)CCNC(=O)c1c(C)[nH]c(/C=C2\C(=O)Nc3cccc(-c4ccc(-c5ccccc5)cc4)c32)c1C , please.
Reply: 8%

Ask: Thanks! And Cc1[nH]c(/C=C2\C(=O)Nc3ccc(-c4cnn(-c5ccccn5)c4)cc32)c(C)c1C(=O)NCCN1CCCC1 ?
Reply: 52%

Ask: Same for COc1ccc(-c2cccc3c2NC(=O)/C3=C\c2[nH]c(C)cc2C)cn1
Reply: 91%

Ask: Another molecule to look at: Cc1nc(-c2ccccc2)oc1-c1ccc2c(c1)NC(=O)/C2=C\c1[nH]c(C)c(C(=O)N2CCN(C)CC2)c1C
Reply: 103%

====

# Tested on: A549
# measurement.protocol: Cytotoxic activity against human A549 bulk cells incubated for 72 hrs by Cell-titer-Glo luminescence assay
# Type: functional, cell-based
# condition.set: A549, 72 h
So I've got a bunch of molecules here, and I need their pIC50 values.
# log scale: pIC50 equals minus log10 of the concentration in mol/L

Ask: GET /values?readout=pIC50&item= Cc1[nH]c(/C=C2\C(=O)Nc3ccc(-c4cnn(-c5ccccn5)c4)cc32)c(C)c1C(=O)N1CCN(C)CC1
Reply: 4.72

Ask: Could you do the same for CCN(CC)CCNC(=O)c1ccc(/C=C2\C(=O)Nc3ccc(-c4csc(-c5ccccc5)n4)cc32)[nH]c1=O , please?
Reply: 5.44

Ask: Cool, now Cc1cc(C)c(/C=C2\C(=O)Nc3cccc(-c4cncnc4)c32)[nH]1
Reply: 4.79

Ask: Same question, CCN(CC)CCNC(=O)c1c(C)[nH]c(/C=C2\C(=O)Nc3ccc(-c4cnn(-c5ccccn5)c4)cc32)c1C this time
Reply: 5.76

====

# target.entity: Serine/threonine-protein kinase RIO2 (Homo sapiens) (UniProt Q9BVS4)
# Sequence (Q9BVS4 whole entry, looked up, the tested form may be a part): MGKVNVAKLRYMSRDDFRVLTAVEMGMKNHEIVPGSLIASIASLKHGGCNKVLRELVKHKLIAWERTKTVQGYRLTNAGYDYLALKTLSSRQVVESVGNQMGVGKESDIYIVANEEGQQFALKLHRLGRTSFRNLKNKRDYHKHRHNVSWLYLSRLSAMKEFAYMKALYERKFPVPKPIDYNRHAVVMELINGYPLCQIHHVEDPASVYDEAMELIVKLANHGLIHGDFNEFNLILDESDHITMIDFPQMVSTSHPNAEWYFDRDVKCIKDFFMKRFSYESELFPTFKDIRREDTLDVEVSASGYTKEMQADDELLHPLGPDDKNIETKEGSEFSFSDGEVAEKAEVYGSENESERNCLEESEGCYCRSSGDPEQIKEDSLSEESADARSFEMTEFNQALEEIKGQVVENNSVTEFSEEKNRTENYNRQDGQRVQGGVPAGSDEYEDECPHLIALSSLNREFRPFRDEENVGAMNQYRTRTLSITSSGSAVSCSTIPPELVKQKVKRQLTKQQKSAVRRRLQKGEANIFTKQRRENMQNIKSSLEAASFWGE
# measurement.protocol: Inhibition of N-terminal GST-fused full length human recombinant RIOK2 expressed in baculovirus Sf21 cells assessed as reduction in kinase auto-phosphorylation at 1 uM in presence of ATP incubated for 1 hr by ELISA method
Threshold rule: inhibition greater than or equal to 30% is label 1; below that, label 0.

Ask: Decide: is the reported value of inhibition for Cc1[nH]c(/C=C2\C(=O)Nc3ccc(-c4cnn(-c5ccccc5)c4)cc32)c(C)c1C(=O)NC1CCNCC1 equal to or greater than 30%?
Reply: label 0

Ask: What about this compound? CCN(CC)CCNC(=O)c1c(C)[nH]c(/C=C2\C(=O)Nc3ccc(-c4cnn(-c5ccncn5)c4)cc32)c1C
Reply: label 1

Ask: Could you do the same for CCN(CC)CCNC(=O)c1c(C)[nH]c(/C=C2\C(=O)Nc3ccc(-c4cnn(-c5cscn5)c4)cc32)c1C , please?
Reply: label 1

Ask: Next: CCN(CC)CCNC(=O)c1c(C)[nH]c(/C=C2\C(=O)Nc3ccc(-c4ccnn4-c4cccc(C)c4)cc32)c1C
Reply: label 0

Ask: Repeat for the following compound: CCN(CC)CCNC(=O)c1c(C)[nH]c(/C=C2\C(=O)Nc3ccc(-c4cnn(-c5cccnc5)c4)cc32)c1C
Reply: label 1

Ask: Entry CCN(CC)CCNC(=O)c1c(C)[nH]c(/C=C2\C(=O)Nc3ccc(-c4ccnn4-c4ccc(C(F)(F)F)cc4)cc32)c1C please
Reply: label 0

Ask: Try this compound next: CCN(CC)CCNC(=O)c1c(C)[nH]c(/C=C2\C(=O)Nc3ccc(-c4cnn(-c5nccs5)c4)cc32)c1C
Reply: label 0

Ask: Another compound to check: CCOCCCNC(=O)c1c(C)[nH]c(/C=C2\C(=O)Nc3ccc(-c4cnn(-c5ccccc5)c4)cc32)c1C
Reply: label 0

Ask: Continue with Cc1[nH]c(/C=C2\C(=O)Nc3ccc(-c4cnn(-c5ccccc5)c4)cc32)c(C)c1C(=O)NCCc1ncc[nH]1
Reply: label 0

Ask: Repeat with Cc1[nH]c(/C=C2\C(=O)Nc3ccc(-c4cnn(-c5ccccc5)c4)cc32)c(C)c1C(=O)N[C@H]1[C@@H]2CNC[C@@H]21
Reply: label 0

Ask: Next entry: CCN(CC)CCNC(=O)c1c(C)[nH]c(/C=C2\C(=O)Nc3ccc(-c4ccnn4-c4cccc(OC)c4)cc32)c1C
Reply: label 1

Ask: What would you report for CCN(CC)CCNC(=O)c1c(C)[nH]c(/C=C2\C(=O)Nc3ccc(-c4ccnn4-c4ccc(F)cc4)cc32)c1C ?
Reply: label 1

Ask: What do we get for CCN(CC)CCNC(=O)c1c(C)[nH]c(/C=C2\C(=O)Nc3ccc(-c4cnn(-c5cnccn5)c4)cc32)c1C ?
Reply: label 1

Ask: Now the same for CCN(CC)CCNC(=O)c1c(C)[nH]c(/C=C2\C(=O)Nc3ccc(-c4cnn(-c5ccccc5)c4)cc32)c1C
Reply: label 1

Ask: And what about the compound Cc1[nH]c(/C=C2\C(=O)Nc3ccc(-c4cnn(-c5ccccc5)c4)cc32)c(C)c1C(=O)NC[C@H]1CCCN1 ?
Reply: label 0

Ask: Now this one: CCN(CC)CCNC(=O)c1c(C)[nH]c(/C=C2\C(=O)Nc3ccc(-c4cnn(-c5ccc(S(N)(=O)=O)cc5)c4)cc32)c1C
Reply: label 0

Ask: Same for Cc1[nH]c(/C=C2\C(=O)Nc3ccc(-c4cnn(-c5ccccn5)c4)cc32)c(C)c1C(=O)NCCN1CCCC1
Reply: label 1

Ask: Item: CCN(CC)CCN(C)C(=O)c1c(C)[nH]c(/C=C2\C(=O)Nc3ccc(-c4cnn(-c5ccccc5)c4)cc32)c1C
Reply: label 0

Ask: Then this compound: CCN(CC)CCNC(=O)c1c(C)[nH]c(/C=C2\C(=O)Nc3ccc(-c4cnn(-c5ccccc5Cl)c4)cc32)c1C
Reply: label 0

Ask: Consider next the compound CCN(CC)CCCNC(=O)c1c(C)[nH]c(/C=C2\C(=O)Nc3ccc(-c4cnn(-c5ccccc5)c4)cc32)c1C in the same way.
Reply: label 0

Ask: Then this compound: CCN(CC)CCNC(=O)c1c(C)[nH]c(/C=C2\C(=O)Nc3ccc(-c4ccnn4-c4ccccc4F)cc32)c1C
Reply: label 1

Ask: What about Cc1[nH]c(/C=C2\C(=O)Nc3ccc(-c4cnn(-c5ccccc5)c4)cc32)c(C)c1C(=O)N[C@@H]1CCCNC1 ?
Reply: label 0

Ask: CCN(CC)CCNC(=O)c1c(C)[nH]c(/C=C2\C(=O)Nc3ccc(-c4ccnn4-c4ccccc4)cc32)c1C ?
Reply: label 1

Ask: Do the same for CCN(CC)CCNC(=O)c1c(C)[nH]c(/C=C2\C(=O)Nc3ccc(-c4cnn(-c5ccccn5)c4)cc32)c1C please
Reply: label 1

Ask: What do you get for CCN(CC)CCNC(=O)c1c(C)[nH]c(/C=C2\C(=O)Nc3ccc(-c4cnn(-c5ncccn5)c4)cc32)c1C ?
Reply: label 1

Ask: What about this compound? CCN(CC)CCNC(=O)c1c(C)[nH]c(/C=C2\C(=O)Nc3ccc(-c4ccnn4-c4ccncc4)cc32)c1C
Reply: label 0

Ask: Same question, CCN(CC)CCNC(=O)c1c(C)[nH]c(/C=C2\C(=O)Nc3ccc(-c4ncc(-c5ccccc5)o4)cc32)c1C this time
Reply: label 1
